experiment: Pharmacokinetics and brain distribution after single iv dose; settings: 30 min after 5 mg/kg single iv, mice
Structures can show the parent of a compound that is named as a salt.
Quantity: Brain concentration (pmol/mg tissue)
Quick note: give the figure in pmol/mg tissue, leave out the unit.

Query string: Form field: reported Brain concentration of NCc1ccc(Oc2ccc(S(=O)(=O)CC3CS3)cc2)cc1 (stereo not shown) [Compound 5, HCl salt]
Result string: 0.213

Query string: Now give it for CC(=O)NCc1ccc(Oc2ccc(S(=O)(=O)CC3CS3)cc2)cc1 (stereo not shown) [Compound 6] too.
Result string: 0.231

Query string: Repeat with N=C(N)Nc1ccc(Oc2ccc(S(=O)(=O)CC3CS3)cc2)cc1 (stereo not shown) [Compound 7, HCl salt]
Result string: 0.117

Query string: // repeat for NCc1nc(-c2ccc(Oc3ccc(S(=O)(=O)CC4CS4)cc3)cc2)no1 (stereo not shown) [Compound 4] and report
Result string: 0.249

// provenance: patent US9951035B2
